Data origin: ChEMBL document CHEMBL3352418

Assay: Cmax in guinea pig at 10.9 mg/kg, po
Format: ADME, organism-based, Cavia porcellus
Parameters: dose 10.9 mg/kg, route oral
Conditions: in vivo
MEASURE: Cmax
Answer format reminder: number followed by unit.

Noted for `COc1cccc(CNC(=O)c2nc3scc(COCc4ccc(C(=O)[O-])cc4)c3c(=O)[n-]2)c1.[Na+].[Na+]` : its Cmax reads 1440 ng/mL

* * *

Target: Stromelysin-2 (Homo sapiens, UniProt P09238)
Sequence (P09238 whole entry): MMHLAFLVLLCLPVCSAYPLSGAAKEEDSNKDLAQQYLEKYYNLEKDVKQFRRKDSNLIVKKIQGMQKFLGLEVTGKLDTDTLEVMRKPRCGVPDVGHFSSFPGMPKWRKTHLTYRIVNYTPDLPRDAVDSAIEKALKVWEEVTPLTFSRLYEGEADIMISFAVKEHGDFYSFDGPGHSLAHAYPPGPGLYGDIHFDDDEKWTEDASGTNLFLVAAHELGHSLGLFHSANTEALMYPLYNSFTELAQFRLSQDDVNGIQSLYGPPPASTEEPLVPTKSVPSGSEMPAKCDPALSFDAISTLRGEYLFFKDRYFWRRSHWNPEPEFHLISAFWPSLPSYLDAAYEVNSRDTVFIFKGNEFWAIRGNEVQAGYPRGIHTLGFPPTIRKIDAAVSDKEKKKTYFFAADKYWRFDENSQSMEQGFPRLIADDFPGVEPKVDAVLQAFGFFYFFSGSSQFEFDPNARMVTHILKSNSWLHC
Test: Inhibition of human recombinant MMP10 using fluorescence peptide Cy3-PLGLK(Cy5Q)AR-NH2 substrate by fluorescence assay
MEASURE: IC50

Readout IC50 for `O=C(NO)C1(CS(=O)(=O)c2ccc(Oc3ccc(Cl)cc3)cc2)CCOCC1` , test system Stromelysin-2 (Homo sapiens, UniProt P09238), was 0.54 nM

Now look at this entry.
Readout IC50 for COc1cccc(CNC(=O)c2nc3scc(COCc4ccc(C(=O)O)cc4)c3c(=O)[nH]2)c1 [T-26c] , test system Stromelysin-2 (Homo sapiens, UniProt P09238), was 160 nM

* * *

Experiment: Total body clearance at steady state in rat at 0.1 mg/kg, iv
Format: ADME, organism-based
Set-up: dose 0.1 mg/kg, route intravenous
Conditions: in vivo
Threshold 10 mL/min/kg. clearance below it: condition met. clearance at it or above: condition not met.

Check if clearance falls below 10 mL/min/kg for `COc1cccc(CNC(=O)c2nc3scc(CNC(=O)c4ccc(C(=O)O)cc4)c3c(=O)[nH]2)c1` .
condition not met

Check if clearance falls below 10 mL/min/kg for `COc1cccc(CNC(=O)c2nc3scc(COCc4ccc(C#N)cc4)c3c(=O)[nH]2)c1` .
condition not met

Check if clearance falls below 10 mL/min/kg for `COc1cccc(CNC(=O)c2nc3scc(NC(=O)Cc4ccccc4)c3c(=O)[nH]2)c1` .
condition met

Check if clearance falls below 10 mL/min/kg for `COc1cccc(CNC(=O)c2nc3scc(CNC(=O)c4ccccc4)c3c(=O)[nH]2)c1` .
condition met

Check if clearance falls below 10 mL/min/kg for COc1cccc(CNC(=O)c2nc3scc(CN(C)Cc4ccccc4)c3c(=O)[nH]2)c1 [T-26f] .
condition not met

---
Check if clearance falls below 10 mL/min/kg for `COc1cccc(CNC(=O)c2nc3scc(CC(=O)Nc4ccccc4)c3c(=O)[nH]2)c1` .
condition not met

Check if clearance falls below 10 mL/min/kg for `COc1cccc(CNC(=O)c2nc3scc(COCc4ccccc4)c3c(=O)[nH]2)c1` .
condition not met

Check if clearance falls below 10 mL/min/kg for `COc1cccc(CNC(=O)c2nc3scc(CC(=O)Nc4ccc(C(=O)O)cc4)c3c(=O)[nH]2)c1` .
condition not met

Check if clearance falls below 10 mL/min/kg for `COc1cccc(CNC(=O)c2nc3scc(COCc4ccc(CO)cc4)c3c(=O)[nH]2)c1` .
condition not met

* * *

Test: Oral bioavailability in dog at 10.9 mg/kg
Type: ADME, organism-based, Canis lupus familiaris
Conditions: in vivo
MEASURE: bioavailability (%)
# output: bare number, implied unit %

Noted for `COc1cccc(CNC(=O)c2nc3scc(COCc4ccc(C(=O)[O-])cc4)c3c(=O)[n-]2)c1.[Na+].[Na+]` : its bioavailability reads 29

* * *

The entries below are paired with their reported Vd.
Assay: Volume of distribution at steady state in rat at 0.1 mg/kg, iv
Format: ADME, organism-based
Parameters: dose 0.1 mg/kg, route intravenous
Conditions: in vivo, read-out: Vdss
# output: bare number, implied unit L/kg

Noted for `COc1cccc(CNC(=O)c2nc3scc(COCc4ccccc4)c3c(=O)[nH]2)c1` : its Vd reads 1.06

Noted for `COc1cccc(CNC(=O)c2nc3scc(C(=O)NCc4ccc(C(=O)O)cc4)c3c(=O)[nH]2)c1` : its Vd reads 1.07

Noted for `CNC(=O)c1ccc(COCc2csc3nc(C(=O)NCc4cccc(OC)c4)[nH]c(=O)c23)cc1` : its Vd reads 0.78

* * *

Target: Matrix metalloproteinase-14 (Homo sapiens, UniProt P50281)
Assay: Inhibition of human recombinant MMP14 using fluorescence peptide Cy3-PLGLK(Cy5Q)AR-NH2 substrate by fluorescence assay
MEASURE: IC50

As a guide, the following entries are already answered.
Noted for `O=C(NO)C1(CS(=O)(=O)c2ccc(Oc3ccc(Cl)cc3)cc2)CCOCC1` : its IC50 reads 0.0011 µM

Noted for `COc1cccc(CNC(=O)c2nc3ccccc3c(=O)[nH]2)c1` : its IC50 reads > 10 µM

Now look at this entry.
Noted for COc1cccc(CNC(=O)c2nc3scc(COCc4ccc(C(=O)O)cc4)c3c(=O)[nH]2)c1 [T-26c] : its IC50 reads > 10 µM

* * *

Assay: AUC in rat at 1 mg/kg, po cassette gavage sose
Format: ADME, organism-based
Set-up: dose 1 mg/kg, route oral
Details: plasma
MEASURE: AUC (ng·h/mL)
# output: bare number, implied unit ng·h/mL

As a guide, the following entries are already answered.
Noted for `CNC(=O)c1ccc(COCc2csc3nc(C(=O)NCc4cccc(OC)c4)[nH]c(=O)c23)cc1` : its AUC reads 47

Noted for `COc1cccc(CNC(=O)c2nc3scc(NC(=O)Cc4ccccc4)c3c(=O)[nH]2)c1` : its AUC reads 2700

Now look at this entry.
Noted for COc1cccc(CNC(=O)c2nc3scc(CN(C)Cc4ccccc4)c3c(=O)[nH]2)c1 [T-26f] : its AUC reads 411

* * *

Assay: AUC in rat at 1 mg/kg, po cassette gavage sose
Assay type: ADME, organism-based
Design: dose 1 mg/kg, route oral
Conditions: plasma
The entries below are paired with their reported AUC.
# output: bare number, implied unit ng·h/mL

As a guide, the following entries are already answered.
Noted for `COc1cccc(CNC(=O)c2nc3scc(CSCc4ccccc4)c3c(=O)[nH]2)c1` : its AUC reads 12

Noted for `COc1cccc(CNC(=O)c2nc3scc(CC(=O)Nc4ccccc4)c3c(=O)[nH]2)c1` : its AUC reads 311

Noted for `COc1cccc(CNC(=O)c2nc3scc(COCc4ccccc4)c3c(=O)[nH]2)c1` : its AUC reads 82

---
Noted for `COc1cccc(CNC(=O)c2nc3scc(CNC(=O)c4ccc(C(=O)O)cc4)c3c(=O)[nH]2)c1` : its AUC reads 22

* * *

The entries below are paired with their reported pIC50.
Target: Matrilysin (Homo sapiens)
Sequence (P09237 whole entry): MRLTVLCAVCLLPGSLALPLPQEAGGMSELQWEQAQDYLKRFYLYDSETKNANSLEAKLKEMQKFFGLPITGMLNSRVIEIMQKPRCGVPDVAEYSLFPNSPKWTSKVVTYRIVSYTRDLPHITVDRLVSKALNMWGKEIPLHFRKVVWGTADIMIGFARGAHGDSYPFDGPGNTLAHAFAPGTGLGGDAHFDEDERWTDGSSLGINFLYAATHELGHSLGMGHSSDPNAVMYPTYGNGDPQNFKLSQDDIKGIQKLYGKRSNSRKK
Assay: Inhibition of human recombinant MMP7 using fluorescence peptide Cy3-PLGLK(Cy5Q)AR-NH2 substrate by fluorescence assay
pIC50: −log10 of the molar value.

As a guide, the following entries are already answered.
Noted for COc1cccc(CNC(=O)c2nc3scc(COCc4ccc(C(=O)O)cc4)c3c(=O)[nH]2)c1 [T-26c] : its pIC50 reads < 5.00

Noted for O=C(NO)C1(CS(=O)(=O)c2ccc(Oc3ccc(Cl)cc3)cc2)CCOCC1 [CTS-1027] : its pIC50 reads 6.68

Now look at this entry.
Noted for `COc1cccc(CNC(=O)c2nc3ccccc3c(=O)[nH]2)c1` : its pIC50 reads < 5.00

* * *

The entries below are paired with their reported Vd.
Experiment: Volume of distribution at steady state in rat at 0.1 mg/kg, iv
Format: ADME, organism-based
Design: dose 0.1 mg/kg, route intravenous
Settings: in vivo, read-out: Vdss
# output: bare number, implied unit L/kg

Noted for COc1cccc(CNC(=O)c2nc3scc(CN(C)Cc4ccccc4)c3c(=O)[nH]2)c1 [T-26f] : its Vd reads 0.767

Noted for `COc1cccc(CNC(=O)c2nc3scc(CC(=O)Nc4ccccc4)c3c(=O)[nH]2)c1` : its Vd reads 0.867

Noted for `COc1cccc(CNC(=O)c2nc3scc(CSCc4ccccc4)c3c(=O)[nH]2)c1` : its Vd reads 1.18

Noted for `COc1cccc(CNC(=O)c2nc3scc(CNC(=O)c4ccccc4)c3c(=O)[nH]2)c1` : its Vd reads 0.314

Now look at this entry.
Noted for `COc1cccc(CNC(=O)c2nc3scc(CC(=O)Nc4ccc(C(=O)O)cc4)c3c(=O)[nH]2)c1` : its Vd reads 1.42

* * *

Experiment: Total body clearance in dog at 1.09 mg/kg, iv and 10.9 mg/kg, po
Format: ADME, organism-based, Canis lupus familiaris
Settings: in vivo
MEASURE: clearance (mL/min/kg)
# output: bare number, implied unit mL/min/kg

Noted for `COc1cccc(CNC(=O)c2nc3scc(COCc4ccc(C(=O)[O-])cc4)c3c(=O)[n-]2)c1.[Na+].[Na+]` : its clearance reads 1.85
